Test system: UACC-257 melanoma
assay: NCI-60 one-dose screen, 48 h (100 = growth as untreated, 0 = no growth, -100 = all killed)
condition-description: 10 µM unless noted
About 83,000 compounds went through this panel and 20% of them were active in at least one assay; those are over-represented in the sample as a whole.
Listed here are compounds together with their documented growth.
assay-endpoint: growth (%)

INSERT INTO measurements (compound, measured_target, unit, recorded_number) VALUES
  ('COc1ccc(/C=C2\CCCC3=C2N=C2SC(C)=NN2C3c2ccc(OC)c(OC)c2)cc1OC (configuration not stated)', 'UACC-257 melanoma', '%', 51.9),
  ('COc1cc(C2CC(c3cccc(Nc4ccnc5cc(Cl)ccc45)c3)=NN2c2ccc(Cl)cc2)cc(OC)c1OC (configuration not stated)', 'UACC-257 melanoma', '%', 57.1),
  ('Cc1cc(C)c(C#N)c(SCC(=O)c2sc3c(C#N)c(C)cc(C)[n+]3c2[O-])n1', 'UACC-257 melanoma', '%', 51.9),
  ('CC(C)c1[nH]ncc1-c1nc2ccc3[nH]ncc3c2c2c1CCCC2', 'UACC-257 melanoma', '%', 44),
  ('Cc1cc2nc3c(=O)[nH]c(=O)nc-3n(CC=O)c2cc1C', 'UACC-257 melanoma', '%', 159),
  ('CCN(CC)CCCC(C)Nc1cnc(C(=O)Nc2cc(C)cc3cccnc23)cn1 (configuration not stated)', 'UACC-257 melanoma', '%', 71.7),
  ('CSC(=S)N/N=C(\C)c1ccccn1', 'UACC-257 melanoma', '%', 7.4),
  ('O=c1cc(-c2ccc3c(c2)OCCO3)oc2cc(Cl)ccc12', 'UACC-257 melanoma', '%', 52.8),
  ('CC(C)N1CCN(c2ccncc2S(=O)(=O)N2CCN(C)CC2)CC1', 'UACC-257 melanoma', '%', 102),
  ('CN(C)c1ccc(C(c2ccccc2)c2ccc(N(C)C)cc2)cc1', 'UACC-257 melanoma', '%', 98.1),
  ('CC(C)c1ccc(Cn2ccc3c4c(N)nc(NC5CC5)nc4ccc32)cc1', 'UACC-257 melanoma', '%', -77.8),
  ('Fc1ccc(-c2nnc(N3CCOCC3)c3ccccc23)cc1', 'UACC-257 melanoma', '%', 94.7),
  ('CCCNC(=S)N/N=C(\C)c1ccccn1', 'UACC-257 melanoma', '%', 12),
  ('COc1cccc2nc(Nc3cccc(NC(=O)c4ccc(N5CCN(C)CC5)c(C(F)(F)F)c4)c3)ccc12', 'UACC-257 melanoma', '%', -21.9),
  ('CCCCN(CCCC)CCC(=O)c1ccc(OC)c2ccccc12', 'UACC-257 melanoma', '%', 86.4),
  ('CN(C)c1ccc(/C=N/Nc2nnc3n2N=C(c2ccc(Cl)cc2)CS3)cc1', 'UACC-257 melanoma', '%', 106),
  ('COc1ccc(Br)c2ccccc12', 'UACC-257 melanoma', '%', 100),
  ('COc1ccc(/C(=C\c2ccc3c(c2)OCO3)C(=O)Nc2nc3ccccc3s2)cc1', 'UACC-257 melanoma', '%', 99.7),
  ('Oc1ccc(-c2cnc(-c3ccccc3)[nH]2)c(O)c1', 'UACC-257 melanoma', '%', -22.6),
  ('COc1cc2c(cc1I)-c1c(cc(OC)c(OC)c1OC)CC[C@@H]2NC(C)=O', 'UACC-257 melanoma', '%', 56.7),
  ('COS(=O)(=O)CCN(CCOS(C)(=O)=O)S(C)(=O)=O', 'UACC-257 melanoma', '%', 82.6),
  ('COc1ccc(C2=Nn3c(nnc3-c3ccc(Cl)cc3N)SC2)cc1', 'UACC-257 melanoma', '%', 95);

* * *

Test system: MOLT-4 leukemia
assay: NCI-60 one-dose screen, 48 h (100 = growth as untreated, 0 = no growth, -100 = all killed)
condition-description: 10 µM unless noted
Protocol: Growth inhibition of the MOLT-4 human tumor cell line is measured as a screen for anti-cancer activity. Cells are grown in 96 well plates and exposed to the test compound for 48 hours. Compounds are tested at a single concentration, which is 10^-5 M for most compounds. The reported endpoint is percent growth (GI% or GIPRCNT), where numbers from 0 - 100% represent growth inhibition, and numbers from -100% - 0 represent cell death. For example, a value of 40 represents 60% growth inhibition. […]
Compounds without any hit were thinned out: in the full panel of roughly 83,000, 20% have a hit.
assay-endpoint: growth (%)

INSERT INTO results (compound, unit, recorded_number) VALUES
  ('COc1c(B(O)O)cccc1-c1nc2ccc3[nH]ncc3c2c2c1CCCC2', '%', 11.5),
  ('CCCCCCCCCCCCCCCCS(=O)(=O)Nc1cc(C(=O)NN)cc(C(=O)NN)c1', '%', 21.5),
  ('COc1ccc(-c2nsc3c2NC(=O)CC3c2ccc3c(c2)OCO3)cc1 (stereo not given)', '%', 18.4),
  ('Cc1cc(C)c2c(n1)sc1c(Nc3ccc(O)cc3)ncnc12', '%', 14.3),
  ('COc1ccc2[nH]cc(C(c3ccc(Cl)cc3)N3CCCC3)c2c1 (stereo not given)', '%', 75.1),
  ('CCCCN(CCCC)CCC(=O)c1ccc(OC)c2ccccc12', '%', 28.6),
  ('COc1ccc(C2CC(c3cccc(Nc4ccnc5cc(Cl)ccc45)c3)=NN2c2ccccc2)cc1 (stereo not given)', '%', 64.3),
  ('Clc1ccc2c(c1)-c1ccccc1C1=NCCN12', '%', 17.1),
  ('COc1ccc(C2=CC(c3ccc(OC)cc3Br)N3C=CSC3=N2)cc1 (stereo not given)', '%', 36.7),
  ('CCCCCCCCCCCCCCCCCC1=NC(C)(C)CN1C(C)(C)CO', '%', -55.2),
  ('O=S(=O)(NCC[C@@H]1C[C@H]1c1ccc2ccccc2c1)c1ccc(C(F)(F)F)cc1', '%', 84.3),
  ('COc1cc2cc(C(=O)Nc3ccccc3)c(N)nc2cc1OC', '%', -44.6),
  ('C#CC[C@@H]1C[C@]2(C)[C@H]3CC[C@@H]4[C@H]5C(C(=C)C)CC[C@]5(C(=O)NCCN(CCN)CCN)CC[C@@]4(C)[C@]3(C)CC[C@H]2C(C)(C)[C@H]1OC(C)=O (stereo not given in full)', '%', 31.1),
  ('CCCCn1c(C)nc2cc(Nc3nc(Cl)nc4nc[nH]c34)ccc21', '%', 64),
  ('Fc1ccc(-c2ccnc3nc(-c4ccncc4)nn23)cc1', '%', 94.9),
  ('CCN(CC)CCNc1c(C)cc(CO)c(Cl)c1C', '%', 93),
  ('CCCCCCCCCCCCCCCCOc1ccc(S(=O)(=O)N(C)C)cc1[N+](=O)[O-]', '%', 103),
  ('O=C(O)/C=C(\c1nc2ccc([N+](=O)[O-])cc2[nH]1)c1cc(Cl)ccc1O', '%', -4.02),
  ('O=C(O)C1[S][Sb]([CH](C(=O)O)[CH](C(=O)O)[Sb]2[S]C(C(=O)O)C(C(=O)O)[S]2)[S]C1C(=O)O (stereo not given)', '%', 63.7),
  ('Oc1c(-c2cc(C(F)(F)F)[nH]n2)cc(Cl)c(OCc2ccc(Cl)cc2)c1-c1ccc(Cl)c(C(F)(F)F)c1', '%', -14.8);

* * *

growth listing for selected compounds.
Test system: CCRF-CEM leukemia
assay: NCI-60 one-dose screen, 48 h (100 = growth as untreated, 0 = no growth, -100 = all killed)
condition-description: 10 µM unless noted
This is part of a sample that, as a whole, favours compounds with a hit. Of some 83,000 tested, about 20% had one in any assay.
assay-endpoint: growth (%)

INSERT INTO measurements (compound, recorded_number) VALUES
  ('CCOC(=O)c1sc2nc(-c3cc4ccccc4o3)cc(-c3ccc(Cl)cc3)c2c1N', 84),
  ('CC(CN1CCN(C)CC1)CN1c2ccccc2Sc2ccc(C(F)(F)F)cc21 (centres undefined)', 25.2),
  ('CCOC(=O)c1ccc(NC(=O)NC2=NCCS2)cc1', 7.22),
  ('COc1ccccc1/C=N\NC(=S)Nc1ccc(F)cc1', 89.2),
  ('N#Cc1c(N)c(C(=O)c2ccc3c(c2)OCCO3)n2c1CCCC2', 30.5),
  ('C[C@]12CCc3nc(Nc4ccc(O)cc4)sc3C1=CC[C@@H]1[C@@H]2CC[C@]2(C)/C(=N/NC(N)=S)CC[C@@H]12', -7.49),
  ('COC(=O)CNS(=O)(=O)c1ccc2c(c1)Cc1cc(S(=O)(=O)NCC(=O)OC)ccc1-2', 104),
  ('Cc1ccc(N2C3c4ccccc4N(S(=O)(=O)c4ccc(C)cc4)C2c2ccccc2N3S(=O)(=O)c2ccc(C)cc2)cc1', 89.2),
  ('O=C(c1ccc(C(F)(F)F)c(Cl)c1)N(Cc1ccc(Cl)cc1)c1ccc(-c2cc(C(F)(F)F)[nH]n2)c(O)c1', 10.4);
